# Test system: HCT116 cells
# method-summary: Measurement of cell growth inhibition (Cell Counting Kit-8, four days);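 further: cells exposed to a range of test concentrations at 37 °C in 5% CO2 for four days, then growth read as absorbance with Cell Counting Kit-8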
# experimental-setup: Homo sapiens, HCT-116, 96 h, read-out: Cell growth-inhibiting activity (IC50, μM) Colon cancer HCT116, HCT116 colon cancer cell line, four days culture
result-type: IC50 (µM)

Use these answered entries as a reference point.
| compound | tested-system | result-type | measured |
| --- | --- | --- | --- |
| Cc1cc(C)c2cc1C(=O)NC[C@@H](O)CNC(=O)CCSc1cc-2nc(N)n1 | HCT116 cells | IC50 | 1.3 |
| Cc1cc(C)c2cc1C(=O)NCCCCNC(=O)CCCSc1cc-2nc(N)n1 | HCT116 cells | IC50 | 0.5 |

a. Cc1cc(C)c2cc1C(=O)NCCCN(CCO)C(=O)CCSc1cc-2nc(N)n1
b. Cc1cc(C)c2cc1C(=O)NCCCC(=O)N(C)CCSc1cc-2nc(N)n1
// query Hey, between a and b which has a smaller measured IC50? Refer to your chosen entry by its label in the reply.
// result b
(b: 0.2 µM, a: 1.1 µM)

1. Cc1cc(C)c2cc1C(=O)NCCCC(=O)N(CCN1CCOCC1)CCSc1cc-2nc(N)n1
2. Cc1cc(C)c2cc1C(=O)NCC[C@@H](CN1CCOCC1)NC(=O)CCSc1cc-2nc(N)n1
3. Cc1cc(C)c2cc1C(=O)NCCCN(CCN1CCOCC1)C(=O)CCSc1cc-2nc(N)n1
4. Cc1cc(C)c2cc1C(=O)N(C)CCCC(=O)NCCSc1cc-2nc(N)n1
// query Sort entries by IC50 from minimum to maximum value. As an answer, provide the labels arranged in the order called for.
// result 1, 3, 4, 2
(1: 1.1 µM, 3: 1.8 µM, 4: 4.4 µM, 2: 9.1 µM)

1. Cc1cc(C)c2cc1C(=O)NCCOCCNC(=O)CCSc1cc-2nc(N)n1
2. Cc1cc(C)c2cc1C(=O)NCCC(NC(=O)[C@H](N)C(C)C)C(=O)NCCSc1cc-2nc(N)n1 (stereo partly drawn)
3. Cc1cc(C)c2cc1C(=O)NCCC(N(C)C)C(=O)NCCSc1cc-2nc(N)n1 (stereo not drawn)
4. CNC(=O)[C@@H]1CCNC(=O)CCSc2cc(nc(N)n2)-c2cc(c(C)cc2C)C(=O)N1
5. Nc1nc2cc(n1)-c1cc(c(Cl)cc1Cl)C(=O)NCCCCCC(=O)NCCS2
// query Endpoint returns the given compounds ordered by ascending IC50. To answer, write out the labels according to the requested order.
// result 5, 1, 3, 2, 4

a. Cc1cc(C)c2cc1C(=O)N[C@H](CO)CCNC(=O)CCSc1cc-2nc(N)n1
b. Cc1cc(C)c2cc1C(=O)NCCC(NC(=O)C(F)(F)F)C(=O)NCCSc1cc-2nc(N)n1 (stereo not drawn)
// query Given a and b , report the one with the higher recorded IC50. Field: selected label. Fill in the label of the entry you choose.
// result a
(a: 7.1 µM, b: 0.5 µM)

* * *

# tested-system: Human HSP90 alpha (Homo sapiens, UniProt P07900)
# Construct: His tag (inferred from purification on a HisPrep FF column); made in house; host or cells: E. coli BL21 codon plus (Stratagene)
# method-summary: Assay for the activity of inhibiting HSP90 enzyme (ATPase, malachite green)
# Type: biochemical
# experimental-setup: purified human HSP90 alpha, 1 mM ATP added, 37° C. for two hours, OD655; read-out: Enzyme-inhibiting activity (IC50, μM) Human HSP90α
result-type: IC50 (µM)

Example cases with answers are listed next.
| molecule | tested-system | IC50 [µM] |
| --- | --- | --- |
| CC(=O)NC1CCNC(=O)c2cc(c(C)cc2C)-c2cc(nc(N)n2)SCCNC1=O (stereo not shown) | Human HSP90 alpha (Homo sapiens, UniProt P07900) | 2.3 |
| COc1cc(C)c2cc1C(=O)NCCCC(=O)NCCSc1cc-2nc(N)n1 | Human HSP90 alpha (Homo sapiens, UniProt P07900) | 1.9 |
| COCCN1CCSc2cc(nc(N)n2)-c2cc(c(C)cc2C)C(=O)NCCCC1=O | Human HSP90 alpha (Homo sapiens, UniProt P07900) | 2.5 |
| Cc1cc(C)c2cc1C(=O)NCCNC(=O)CCCSc1cc-2nc(N)n1 | Human HSP90 alpha (Homo sapiens, UniProt P07900) | 1 |

a. Cc1cc(C)c2cc1C(=O)N[C@H](CO)CCNC(=O)CCSc1cc-2nc(N)n1
b. COCCNC(=O)[C@@H]1CCNC(=O)CCSc2cc(nc(N)n2)-c2cc(c(C)cc2C)C(=O)N1
// query Could you check which of a and b has a smaller value for IC50? # answer = label of selected item
// result a
(a: 1.7 µM, b: 2.5 µM)
